# Tested on: Cricetinae gen. sp.
# method: Percent activity in the Hamster tracheal organ culture assay at concentration 10e-10 (M)
# Type: functional, Cricetulus griseus, Trachea
Below is a list of entries, each paired with its recorded Activity value.
Numeric answer only, unit % assumed.

1) CCOC(=O)c1ccc(/C=C(\C)c2ccc3c(c2)C(C)(C)CC[S+]3[O-])cc1 (centres undefined) :: 57.1

The value of Activity recorded for "CCOC(=O)c1ccc(/C=C(\C)c2ccc3c(c2)C(C)(C)CCO3)cc1" when tested on Cricetinae gen. sp. reads 50

Simply: "C/C(=C\c1ccc(C(=O)O)cc1)c1ccc2c(c1)C(C)(C)CCO2" , Cricetinae gen. sp., Activity = 18.6

Value (Activity, Cricetinae gen. sp.) for record "CCOC(=O)c1ccc(/C=C(\C)c2ccc3c(c2)C(C)(C)CCS3)cc1" = 53.8

The reported measurements were obtained from ChEMBL document CHEMBL1123088.
